biological target: hP2X2R (human P2X2 receptor) (Homo sapiens, UniProt Q9UBL9, R130E); construct: gene P2RX2; hP2X2-L; assay: whole-cell patch clamp in HEK293 cells, EDTA solution; assay type: cell-based

{"Compound": "Nc1ncnc2c1ncn2[C@@H]1O[C@H](COP(=O)(O)OP(=O)(O)OP(=O)(O)O)[C@@H](O)[C@H]1O [ATP]", "EC50 / µM": 4}

====

target: hP2X2R (human P2X2 receptor) (Homo sapiens, UniProt Q9UBL9); construct: hP2X2-L (Q9UBL9-1) with ATP4−; hP2X2-S (Q9UBL9-2) with Mg-ATP2−; homotrimer in MSP1E3D1 lipid nanodiscs; assay: cryo-EM structure in nanodiscs; whole-cell patch clamp EC50 in EDTA ([…] with divalent cations)
pEC50: −log10 of the molar value.

{"Smiles Input": "Nc1ncnc2c1ncn2[C@@H]1O[C@H](COP(=O)(O)OP(=O)(O)OP(=O)(O)O)[C@@H](O)[C@H]1O", "pEC50": 5.85}

====

Target: hP2X2R (human P2X2 receptor) (Homo sapiens, UniProt Q9UBL9, R130A)
Construct: hP2X2-L
Sequence (Q9UBL9 1-471 R130A): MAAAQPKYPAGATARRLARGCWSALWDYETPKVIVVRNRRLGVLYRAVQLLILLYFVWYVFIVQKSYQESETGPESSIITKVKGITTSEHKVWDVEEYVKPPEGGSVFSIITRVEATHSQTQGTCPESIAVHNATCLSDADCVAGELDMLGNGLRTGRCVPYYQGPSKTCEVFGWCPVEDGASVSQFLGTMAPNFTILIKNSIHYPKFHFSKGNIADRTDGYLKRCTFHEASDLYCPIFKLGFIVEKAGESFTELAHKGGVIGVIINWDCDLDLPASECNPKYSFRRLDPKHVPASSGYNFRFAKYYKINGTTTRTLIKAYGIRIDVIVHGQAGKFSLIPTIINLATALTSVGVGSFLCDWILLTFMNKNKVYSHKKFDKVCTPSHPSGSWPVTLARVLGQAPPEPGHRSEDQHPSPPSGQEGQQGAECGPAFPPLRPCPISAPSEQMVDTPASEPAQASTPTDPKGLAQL
Assay: whole-cell patch clamp in HEK293 cells, EDTA solution
pEC50: −log10 of the molar value.
Outcome Measure: pEC50

{"Molecule": "Nc1ncnc2c1ncn2[C@@H]1O[C@H](COP(=O)(O)OP(=O)(O)OP(=O)(O)O)[C@@H](O)[C@H]1O [ATP]", "Observed Measurement": 5.43}
